These measurements were taken from paper PMC8325119.

Tested on: MCF7 cell line
Method: SRB cytotoxicity assay, MCF7 breast cancer cell line
Reported metric: pIC50
Worth noting: pIC50 values are minus log10 of concentrations stated in mol/L.

**Q:** Complete the entry with pIC50 for CCn1cc(C(=O)O)c(=O)c2cc(F)c3c(nnn3-c3cccc(OC)c3)c21 [13b]
**A:** 3.38

* * *

System: K562 cell line
Method: SRB cytotoxicity assay, K562 leukaemia cell line
Applied conditions: Homo sapiens, K562, 72 h, read-out: Cytotoxicity IC50 value, K562 cell line, SRB, 72 h, 0.1-200 μg/mL range, mean ± SD; NI = lack of cytotoxicity in range
Reported metric: IC50 (µM)
I only need the number, in µM, no unit after it.

Below, 2 molecules whose answers are already recorded.
{"Molecule": "CCc1ccc(-n2nnc3c4c(cc(F)c32)c(=O)c(C(=O)O)cn4C2CC2)cc1", "Value units": "µM", "Value": 163}
{"Molecule": "COc1ccc(Nc2c(F)cc3c(=O)c(C(=O)O)cn(C4CC4)c3c2[N+](=O)[O-])cc1", "Value units": "µM", "Value": 79.1}

**Q:** Please report the measured IC50 for CCn1cc(C(=O)O)c(=O)c2cc(F)c(Nc3cccc(OC)c3)c(N)c21 [12b]
**A:** 35.4

**Q:** Fill in IC50 for record CCCCCCc1ccc(-n2nnc3c4c(cc(F)c32)c(=O)c(C(=O)O)cn4C2CC2)cc1
**A:** 31.5

**Q:** Indicate its recorded IC50; the molecule in question is COc1ccc(-n2nnc3c4c(cc(F)c32)c(=O)c(C(=O)O)cn4C2CC2)cc1
**A:** 248
